TARGET: ER (Homo sapiens)
Construct: endogenous in cells; probably T47D or MCF-7
MEASUREMENT_NOTES: In-cell western blot analysis, relative ER percentage (compounds B1-B126)
Assay type: cell-based
PARTICULARS: ER degradation, 16 hours, read-out: ICW DC50
Each entry below carries its recorded DC50.

Consider the following illustrative entries.
C[C@@H]1Cc2c(ccc3[nH]ncc23)[C@@H](c2c(F)cc(N3CCC(CN4CCN5c6c(ccc7c6CN(C6CCC(=O)NC6=O)C7=O)OC[C@@H]5C4)CC3)cc2F)N1CC(F)F (some centres unmarked) [Compound B99] = 10 to 100 nM
C[C@@H]1Cc2c(ccc3[nH]ncc23)[C@@H](c2ccc(N3CC4(CCN(C(=O)CN5CCC6(CC5)COc5c6ccc6c5CN(C5CCC(=O)NC5=O)C6=O)CC4)C3)cn2)N1CC(F)(F)F (some centres unmarked) [Compound B64] = < 10 nM
C[C@@H]1Cc2c(ccc3[nH]ncc23)[C@@H](c2c(F)cc(N3CCC(CN4CCN5c6ccc7c(c6N(C)C[C@@H]5C4)CN(C4CCC(=O)NC4=O)C7=O)CC3)cc2F)N1CC(F)F (some centres unmarked) [Compound B30] = < 10 nM
C[C@@H]1Cc2c(ccc3[nH]ncc23)[C@@H](c2ccc(N3CCC4(CC3)CC(CN3CCN5c6ccc7c(c6OC[C@H]5C3)CN(C3CCC(=O)NC3=O)C7=O)CO4)cn2)N1CC(F)(F)F (some centres unmarked) [Compound B91] = < 10 nM

Req: Please look up its DC50: C[C@@H]1Cc2c(ccc3[nH]ncc23)[C@@H](c2ccc(N3CCC4(CCN(C(=O)CN5Cc6cc7c(cc6C5)C(=O)N(C5CCC(=O)NC5=O)C7=O)CC4)CC3)cn2)N1CC(F)F (some centres unmarked) [Compound B49]
Resp: 10 to 100 nM

Reference source: patent US20260256925A1
